Molecular target: CD28 (Homo sapiens, UniProt P10747)
Experiment: Jurkat/IL2 + CHO/OKT3 +/- PD-L1 reporter assay: PD-L1-dependent CD28 costimulation
Format: cell-based
Set-up: host or cells: Jurkat cells expressing an IL-2-luciferase reporter
Conditions: Table E13; Jurkat/IL2 + CHO/OKT3/PD-L1; 5.0 nM
value kind: Fold Increase over WT CD80-IgV-Fe

• T13R/Q33R/E35D/M38I/M47L/V68M/E95V/L97Q (protein, UniProt P33681 35-288, looked up, variant T13R Q33R E35D M38I M47L V68M E95V L97Q) T-lymphocyte activation …: VIHVTKEVKEVARLSCGHNVSVEELAQTRIYWRKDKKIVLTMMSGDLNIWPEYKNRTIFDITNNLSIMILALRPSDEGTYECVVLKYEKDAFKRVHQAEVTLSVKADFPTPSISDFEIPTSNIRRIICSTSGGFPEPHLSWLENGEELNAINTTVSQDPETELYAVSSKLDFNMTTNHSFMCLIKYGHLRVNQTFNWNTTKQEHFPDNLLPSWAITLISVNGIFVICCLTYCFAPRCRERRRNERLRRESVRPV = 2.5
• H18Y/E35D/V68M/T79M/L85M (protein, UniProt P33681 35-288, looked up, variant H18Y E35D V68M T79M L85M) T-lymphocyte activation …: VIHVTKEVKEVATLSCGYNVSVEELAQTRIYWQKDKKMVLTMMSGDMNIWPEYKNRTIFDITNNLSIMILALRPSDEGMYECVVMKYEKDAFKREHLAEVTLSVKADFPTPSISDFEIPTSNIRRIICSTSGGFPEPHLSWLENGEELNAINTTVSQDPETELYAVSSKLDFNMTTNHSFMCLIKYGHLRVNQTFNWNTTKQEHFPDNLLPSWAITLISVNGIFVICCLTYCFAPRCRERRRNERLRRESVRPV = 2.9

src = patent US20220177587A1
